# PROTOCOL NOTES: chemical genetic growth profiling, strain panel (AID 1159580);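 also: tested at 20 µM; growth read once vehicle control cultures reached saturation at 30 °C; 1 = growth at the plate median or of vehicle wells; lower values mean less growth of the strain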
# ASSAY CONDITIONS: S. cerevisiae deletion strains, growth OD, locus YBR229C, strain ROT2, stronger effect = lower value
Hit rate of the full screen: of about 5,500 compounds, about 2,000 (36%) were called active. Not shown: some 18% with an inconclusive outcome. This is one part of the list.
EXPERIMENTAL ENDPOINT: normalized growth
Please reply with the number alone, leaving off any unit.

Measured normalized growth of COc1c2ccoc2nc2c(OC)c(OCC(O)C(C)(C)O)ccc12 (stereo not given) : 1

Record summary for CN[C@@H]1[C@H](OC2[C@H](O[C@H]3[C@H](O)[C@@H](O)[C@H](N=C(N)N)[C@@H](O)[C@@H]3N=C(N)N)O[C@@H](C)[C@]2(O)C=O)O[C@@H](CO)[C@H](O)[C@H]1O (stereo not given in full) : reported normalized growth = 1.02

// field: normalized growth; key: "COc1ccc(CCNC(=S)NCCc2ccc(OC)c(OC)c2)cc1OC" ; value = 0.988

Just so you know, measured normalized growth for "NC(N)=O" came out at 0.989

The compound listed as "Cc1ccc(OCc2nnc(SCC(=O)Nc3cccc4c3OCO4)n2-c2ccccc2)c2c1CCC2" shows normalized growth equal to 1.01

Lab book: normalized growth of "C=C[C@H]1CN2CC[C@H]1C[C@@H]2[C@H](O)c1ccnc2ccccc12" noted as 0.995

Recorded normalized growth (compound CC(C)CCCC(C)C1CCC2C3CC[C@H]4CCCC[C@]4(C)C3CC[C@]12C (stereo not given in full) ): 0.963

For this compound ( "S=P(N1CC1)(N1CC1)N1CC1" ), measured normalized growth is 1.01

# normalized growth of "CCCCSP(=O)(SCCCC)SCCCC" = 1.01

Summary for this compound, "CN(C)N=Nc1nc[nH]c1C(N)=O" : normalized growth is 1.01

Source: PubChem BioAssay AID1159580
